- assay-protocol: Lipophilicity determination by RP-TLC
- Format: physicochemical
- condition-summary: 100% MeOH
- Experimental: RM values were determined from the RP-18 TLC measurements. […] The volatiles were carefully evaporated, and the plate was developed by MeOH (100%) or MeOH: H2O-HPLC (72:28 v/v) or MeOH: NaOAc buffer, pH 7.4 (72:28 v/v). After drying, the spots were visualized under UV (λ = 365 nm). RM data were obtained from equation: RM = log(1/RF-1). Each experiment was repeated three times.
parameter: RM (100% MeOH)

Consider the following illustrative entries.
1) O=C(/C=C/c1ccccc1)Nc1ccc(Br)cc1C(F)(F)F [Compound 16] | −0.5624
2) O=C(/C=C/c1ccccc1)Nc1ccc(F)cc1C(F)(F)F [Compound 14] | −0.6797

INPUT: May I ask what RM (100% MeOH) has been recorded for O=C(/C=C/c1ccccc1)Nc1cc(F)c(F)c(F)c1 [Compound 3] ?
OUTPUT: −0.4206

INPUT: Also O=C(/C=C/c1ccccc1)Nc1ccc(Cl)cc1Cl [Compound 4] ?
OUTPUT: −0.3933

INPUT: Also O=C(/C=C/c1ccccc1)Nc1c(Br)cc(C(F)(F)F)cc1Br [Compound 19] ?
OUTPUT: −0.5206

INPUT: Also O=C(/C=C/c1ccccc1)Nc1c(F)cc(F)cc1F [Compound 2] ?
OUTPUT: −0.6536

---

- condition-summary: RP-HPLC, 72:28 MeOH:H2O
parameter: Logk

Consider the following illustrative entries.
1) O=C(/C=C/c1ccccc1)Nc1cc(Cl)ccc1F | 0.3692
2) O=C(/C=C/c1ccccc1)Nc1ccc(Cl)cc1Br | 0.5476
3) O=C(/C=C/c1ccccc1)Nc1ccc(F)cc1C(F)(F)F | 0.1607
4) O=C(/C=C/c1ccccc1)Nc1ccc([N+](=O)[O-])cc1C(F)(F)F | 0.3794
5) O=C(/C=C/c1ccccc1)Nc1ccc(Br)c(Cl)c1 | 0.6611

INPUT: May I ask what Logk has been recorded for O=C(/C=C/c1ccccc1)Nc1c(F)cc(F)cc1F ?
OUTPUT: −0.0831

INPUT: Also O=C(/C=C/c1ccccc1)Nc1ccc(Br)c(F)c1 ?
OUTPUT: 0.5025

---

- assay-protocol: Lipophilicity determination by RP-TLC
- Assay type: physicochemical
- Design: key: RM = log(1/RF - 1), from RP-18 TLC
- condition-summary: 72:28 MeOH:H2O
Overview of reported RM (MeOH:H2O) across a group of molecules:
# output: bare number, no unit

1) O=C(/C=C/c1ccccc1)Nc1ccc(C(F)(F)F)c(F)c1 [Compound 10] | 0.7923
2) O=C(/C=C/c1ccccc1)Nc1ccc(Br)c(F)c1 [Compound 9] | 0.6797
3) O=C(/C=C/c1ccccc1)Nc1cc(C(F)(F)F)ccc1Br [Compound 13] | 0.7194

Proceed to the following item.
INPUT: May I ask what RM (MeOH:H2O) has been recorded for O=C(/C=C/c1ccccc1)Nc1c(F)cc(F)cc1F [Compound 2] ?
OUTPUT: 0.1218

---

Overview of reported chromatographic logD across a group of molecules:
- assay-protocol: physchem
- condition-summary: pH 7.4
# output: bare number, no unit

1) O=C(/C=C/c1ccccc1)Nc1ccc(Cl)cc1C(F)(F)F | 0.474
2) O=C(/C=C/c1ccccc1)Nc1ccc(C(F)(F)F)c(F)c1 | 0.633
3) O=C(/C=C/c1ccccc1)Nc1c(Br)cc(C(F)(F)F)cc1Br | 0.494
4) O=C(/C=C/c1ccccc1)Nc1ccc(Cl)cc1Br | 0.606
5) O=C(/C=C/c1ccccc1)Nc1ccc(Br)cc1Br | 0.67
6) O=C(/C=C/c1ccccc1)Nc1ccc([N+](=O)[O-])cc1C(F)(F)F | 0.443
7) O=C(/C=C/c1ccccc1)Nc1ccc([N+](=O)[O-])c(C(F)(F)F)c1 | 0.557
8) O=C(/C=C/c1ccccc1)Nc1cc(Cl)c(Cl)cc1Cl | 0.888

INPUT: May I ask what chromatographic logD has been recorded for O=C(/C=C/c1ccccc1)Nc1ccc(Br)c(Cl)c1 ?
OUTPUT: 0.713
